System: Escherichia coli TOP10
Test: shrunken log2 fold change of peptide-encoding DNA abundance (4.5 h post-induction vs induction); higher = less antimicrobial activity (less host growth inhibition)
Details: time post-induction: 4.5 h; library: site-saturation at positions 5, 18, 19, 20
Outcome label depends on shrunken log2 fold change relative to -0.02: at/above gives 1.0, below gives 0.0.

Past entries and their recorded results:
RRIRMRPPRLPRPRPRPWQRPRP
1.0
RRIRRRPPRLPRPRPRPCMYPRP
0.0

In: Could you tell me if the measured shrunken log2 fold change of RRIRGRPPRLPRPRPRPSTLPRP reaches -0.02 or more?
Out: 1.0

In: Could you tell me if the measured shrunken log2 fold change of RRIRVRPPRLPRPRPRPMLCPRP reaches -0.02 or more?
Out: 1.0

In: Could you tell me if the measured shrunken log2 fold change of RRIRWRPPRLPRPRPRPDDWPRP reaches -0.02 or more?
Out: 1.0

In: Could you tell me if the measured shrunken log2 fold change of RRIRARPPRLPRPRPRPVYFPRP reaches -0.02 or more?
Out: 0.0

In: Could you tell me if the measured shrunken log2 fold change of RRIRIRPPRLPRPRPRPDDGPRP reaches -0.02 or more?
Out: 0.0

In: Could you tell me if the measured shrunken log2 fold change of RRIRTRPPRLPRPRPRPRGLPRP reaches -0.02 or more?
Out: 1.0

###

Test system: Escherichia coli TOP10
Assay: shrunken log2 fold change of peptide-encoding DNA abundance (4.5 h post-induction vs induction); higher = less antimicrobial activity (less host growth inhibition)
Conditions: time post-induction: 4.5 h; library: site-saturation at positions 5, 18, 19, 20
Outcome label depends on shrunken log2 fold change relative to -0.1: at/above gives 1, below gives 0.

Past entries and their recorded results:
RRIRPRPPRLPRPRPRPAENPRP
0
RRIRDRPPRLPRPRPRPQEHPRP
1
RRIRCRPPRLPRPRPRPIQKPRP
0
RRIRNRPPRLPRPRPRPGDFPRP
1
RRIRFRPPRLPRPRPRPPHYPRP
0

In: Could you tell me if the measured shrunken log2 fold change of RRIRHRPPRLPRPRPRPQKHPRP reaches -0.1 or more?
Out: 0

In: Could you tell me if the measured shrunken log2 fold change of RRIRTRPPRLPRPRPRPFHTPRP reaches -0.1 or more?
Out: 0

In: Could you tell me if the measured shrunken log2 fold change of RRIRMRPPRLPRPRPRPWIEPRP reaches -0.1 or more?
Out: 1

In: Could you tell me if the measured shrunken log2 fold change of RRIRVRPPRLPRPRPRPHTFPRP reaches -0.1 or more?
Out: 0

###

Tested on: Escherichia coli TOP10
Assay: shrunken log2 fold change of peptide-encoding DNA abundance (4.5 h post-induction vs induction); higher = less antimicrobial activity (less host growth inhibition)
Conditions: time post-induction: 4.5 h; library: site-saturation at positions 5, 18, 19, 20
Outcome label depends on shrunken log2 fold change relative to -0.01: at/above gives Met, below gives Not met.

In: Could you tell me if the measured shrunken log2 fold change of RRIRCRPPRLPRPRPRPMRTPRP reaches -0.01 or more?
Out: Met

In: Could you tell me if the measured shrunken log2 fold change of RRIRRRPPRLPRPRPRPDTTPRP reaches -0.01 or more?
Out: Met

In: Could you tell me if the measured shrunken log2 fold change of RRIRVRPPRLPRPRPRPFHGPRP reaches -0.01 or more?
Out: Met

In: Could you tell me if the measured shrunken log2 fold change of RRIRTRPPRLPRPRPRPWDMPRP reaches -0.01 or more?
Out: Not met

###

System: Escherichia coli TOP10
Assay: shrunken log2 fold change of peptide-encoding DNA abundance (4.5 h post-induction vs induction); higher = less antimicrobial activity (less host growth inhibition)
Conditions: time post-induction: 4.5 h; library: site-saturation at positions 5, 18, 19, 20
The following sequences are shown together with reported shrunken log2 fold change values.

Before answering, review these 5 worked examples.
RRIRIRPPRLPRPRPRPPLVPRP
0.0482
RRIRRRPPRLPRPRPRPINAPRP
0.185
RRIRDRPPRLPRPRPRPPSEPRP
0.459
RRIRARPPRLPRPRPRPTHAPRP
0.528
RRIRTRPPRLPRPRPRPDQMPRP
0.0643

Measured shrunken log2 fold change, RRIRKRPPRLPRPRPRPIPMPRP : 0.0472

Measured shrunken log2 fold change, RRIRNRPPRLPRPRPRPNVCPRP : 0.00455

Measured shrunken log2 fold change, RRIRRRPPRLPRPRPRPNACPRP : -0.00291

Measured shrunken log2 fold change, RRIRERPPRLPRPRPRPSRAPRP : 0.12

Measured shrunken log2 fold change, RRIRARPPRLPRPRPRPMQWPRP : 0.442

###

Tested on: Escherichia coli TOP10
Assay: shrunken log2 fold change of peptide-encoding DNA abundance (4.5 h post-induction vs induction); higher = less antimicrobial activity (less host growth inhibition)
Settings: time post-induction: 4.5 h; library: site-saturation at positions 5, 18, 19, 20
propertyName: shrunken log2 fold change
Reply: number alone, nothing else.

Before answering, review these 3 worked examples.
RRIRSRPPRLPRPRPRPFCYPRP
-0.528
RRIRFRPPRLPRPRPRPKCTPRP
-0.243
RRIRLRPPRLPRPRPRPIGFPRP
0.0709

Measured shrunken log2 fold change, RRIRNRPPRLPRPRPRPHFNPRP : -0.608

Measured shrunken log2 fold change, RRIRFRPPRLPRPRPRPISRPRP : 0.0107

Measured shrunken log2 fold change, RRIRPRPPRLPRPRPRPNETPRP : 0.0335

###

Tested on: Escherichia coli TOP10
Assay: shrunken log2 fold change of peptide-encoding DNA abundance (4.5 h post-induction vs induction); higher = less antimicrobial activity (less host growth inhibition)
Conditions: time post-induction: 4.5 h; library: site-saturation at positions 5, 18, 19, 20
The following sequences are shown together with reported shrunken log2 fold change values.
Reply: number alone, nothing else.

Before answering, review these 4 worked examples.
RRIRERPPRLPRPRPRPNDPPRP
-0.488
RRIRHRPPRLPRPRPRPMWLPRP
-0.362
RRIRERPPRLPRPRPRPNGHPRP
0.0479
RRIRWRPPRLPRPRPRPWVPPRP
0.00582

Now look at this entry.
Measured shrunken log2 fold change, RRIRYRPPRLPRPRPRPQDPPRP : -0.0639

###

System: Escherichia coli TOP10
Assay: shrunken log2 fold change of peptide-encoding DNA abundance (4.5 h post-induction vs induction); higher = less antimicrobial activity (less host growth inhibition)
Conditions: time post-induction: 4.5 h; library: site-saturation at positions 5, 18, 19, 20
Each record gets a class by shrunken log2 fold change: bucket 1: < -0.04; bucket 2: ≥ -0.04 and < 0.3; bucket 3: ≥ 0.3

RRIRMRPPRLPRPRPRPQLHPRP
bucket 3

In: Category of RRIRARPPRLPRPRPRPNNWPRP :
Out: bucket 2

In: Category of RRIRKRPPRLPRPRPRPPVWPRP :
Out: bucket 3

In: Category of RRIRYRPPRLPRPRPRPLKEPRP :
Out: bucket 2

In: Category of RRIRMRPPRLPRPRPRPADNPRP :
Out: bucket 2

In: Category of RRIRPRPPRLPRPRPRPSCTPRP :
Out: bucket 1

In: Category of RRIRSRPPRLPRPRPRPAFVPRP :
Out: bucket 3

In: Category of RRIRQRPPRLPRPRPRPCDTPRP :
Out: bucket 1

###

Tested on: Escherichia coli TOP10;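 also: peptides expressed intracellularly from a pBAD plasmid library in pooled LB shake-flask culture, induced with 0.3% L-arabinose, DNA abundance read by NGS, three biological replicates, DESeq2 with apeglm shrinkage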
Assay: shrunken log2 fold change of peptide-encoding DNA abundance (4.5 h post-induction vs induction); higher = less antimicrobial activity (less host growth inhibition)
Conditions: time post-induction: 4.5 h; library: site-saturation at positions 5, 18, 19, 20
Outcome label depends on shrunken log2 fold change relative to 0.2: at/above gives YES, below gives NO.

Past entries and their recorded results:
RRIRDRPPRLPRPRPRPDPCPRP
NO
RRIRVRPPRLPRPRPRPGCKPRP
YES
RRIRNRPPRLPRPRPRPNYFPRP
NO
RRIRERPPRLPRPRPRPNNYPRP
NO
RRIRYRPPRLPRPRPRPFRLPRP
NO
RRIRSRPPRLPRPRPRPVFDPRP
NO

In: Could you tell me if the measured shrunken log2 fold change of RRIRYRPPRLPRPRPRPQFLPRP reaches 0.2 or more?
Out: NO

In: Could you tell me if the measured shrunken log2 fold change of RRIRCRPPRLPRPRPRPIDFPRP reaches 0.2 or more?
Out: NO

In: Could you tell me if the measured shrunken log2 fold change of RRIRKRPPRLPRPRPRPQQHPRP reaches 0.2 or more?
Out: NO

In: Could you tell me if the measured shrunken log2 fold change of RRIRCRPPRLPRPRPRPTPIPRP reaches 0.2 or more?
Out: YES

In: Could you tell me if the measured shrunken log2 fold change of RRIRHRPPRLPRPRPRPEREPRP reaches 0.2 or more?
Out: NO

In: Could you tell me if the measured shrunken log2 fold change of RRIRKRPPRLPRPRPRPACHPRP reaches 0.2 or more?
Out: YES

In: Could you tell me if the measured shrunken log2 fold change of RRIRVRPPRLPRPRPRPCPPPRP reaches 0.2 or more?
Out: NO

In: Could you tell me if the measured shrunken log2 fold change of RRIRGRPPRLPRPRPRPYCMPRP reaches 0.2 or more?
Out: NO

In: Could you tell me if the measured shrunken log2 fold change of RRIRPRPPRLPRPRPRPQYAPRP reaches 0.2 or more?
Out: NO

In: Could you tell me if the measured shrunken log2 fold change of RRIRSRPPRLPRPRPRPFYCPRP reaches 0.2 or more?
Out: NO

In: Could you tell me if the measured shrunken log2 fold change of RRIRYRPPRLPRPRPRPAPWPRP reaches 0.2 or more?
Out: NO
